Answer each item with its documented IC50.

Lookup: IC50 / MMP-9 (Homo sapiens, UniProt P14780) / O=c1c(NS(=O)(=O)c2ccc(-c3ccc(Cl)cc3)cc2)cccn1O
> 1000 nM

Lookup: IC50 / MMP-9 (Homo sapiens, UniProt P14780) / O=c1c(O)cccn1CS(=O)(=O)c1ccc(Br)cc1
> 1000 nM

Lookup: IC50 / MMP-9 (Homo sapiens, UniProt P14780) / Cc1ccc(C#Cc2ccc(N(Cc3cccn(O)c3=O)S(C)(=O)=O)cc2)cc1
> 10000 nM

* * *

A short record of pIC50 observed with MMP-9 (Homo sapiens) follows.
Sequence (P14780 107-446): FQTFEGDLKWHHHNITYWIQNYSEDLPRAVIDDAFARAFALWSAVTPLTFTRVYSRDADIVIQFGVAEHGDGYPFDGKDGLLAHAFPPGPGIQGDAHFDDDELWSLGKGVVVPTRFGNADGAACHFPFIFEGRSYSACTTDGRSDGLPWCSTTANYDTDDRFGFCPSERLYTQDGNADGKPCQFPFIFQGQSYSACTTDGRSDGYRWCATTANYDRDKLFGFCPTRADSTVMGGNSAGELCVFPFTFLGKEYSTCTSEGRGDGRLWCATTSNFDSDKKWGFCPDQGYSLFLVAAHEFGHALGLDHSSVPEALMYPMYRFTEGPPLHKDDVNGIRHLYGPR
pIC50: −log10 of the molar value.

Lookup: pIC50 / MMP-9 (Homo sapiens) / Cc1ccc(-c2ccc(S(=O)(=O)C3CCCCN(O)C3=O)cc2)cc1 (stereo not drawn) [Compound 86]
< 6.00

Lookup: pIC50 / MMP-9 (Homo sapiens) / COc1ccc(S(=O)(=O)Cc2cccn(O)c2=O)cc1 [Compound 96]
< 6.00

Lookup: pIC50 / MMP-9 (Homo sapiens) / O=C1C(S(=O)(=O)c2ccc(F)cc2)CCCCN1O (stereo not drawn) [Compound 79]
< 6.00
